# assay overview: Stability after storing different forms of Tigecycline at 80° C. for 7 days
# Type: physicochemical
# run parameters: ambient conditions (before storage); listed as WO 2007/127792 I
measure: Total impurities ambient conditions (%)
Report as a plain number; the unit % is understood.

What value of Total impurities ambient conditions has been reported for the following compound? CN(C)c1cc(NC(=O)CNC(C)(C)C)c(O)c2c1C[C@H]1C[C@H]3[C@H](N(C)C)C(O)=C(C(N)=O)C(=O)[C@@]3(O)C(O)=C1C2=O [WO 2007/127292 I, Tigecycline]
0.59

----------
# assay overview: Stability after storing different forms of Tigecycline at 80° C. for 7 days
# Assay type: physicochemical
# run parameters: after storing 7 days at 80° C.; listed as WO 2007/127792 I
measure: Total impurities 7 days at 80° C. (%)
Report as a plain number; the unit % is understood.

Any idea what its Total impurities 7 days at 80° C. is? The compound is CN(C)c1cc(NC(=O)CNC(C)(C)C)c(O)c2c1C[C@H]1C[C@H]3[C@H](N(C)C)C(O)=C(C(N)=O)C(=O)[C@@]3(O)C(O)=C1C2=O
2.22

----------
# assay overview: Stability after storing different forms of Tigecycline at 80° C. for 7 days
# Assay type: physicochemical
# run parameters: ambient conditions (before storage)
Catalogue of Total impurities ambient conditions readings, one per entry.
Give a bare numeral; the unit % is implied.

Consider the following illustrative entries.
// lookup Total impurities ambient conditions for CN(C)c1cc(NC(=O)CNC(C)(C)C)c(O)c2c1C[C@H]1C[C@H]3[C@H](N(C)C)C(O)=C(C(N)=O)C(=O)[C@@]3(O)C(O)=C1C2=O [WO 2006/128150 II, Tigecycline]
1.6

Reported Total impurities ambient conditions, compound CN(C)c1cc(NC(=O)CNC(C)(C)C)c(O)c2c1C[C@H]1C[C@H]3[C@H](N(C)C)C(O)=C(C(N)=O)C(=O)[C@@]3(O)C(O)=C1C2=O [WO 2006/128150 I, Tigecycline] : ____
0.75

***
Fill blank: measured Total impurities ambient conditions of the compound CN(C)c1cc(NC(=O)CNC(C)(C)C)c(O)c2c1C[C@H]1C[C@H]3[C@H](N(C)C)C(O)=C(C(N)=O)C(=O)[C@@]3(O)C(O)=C1C2=O [WO 2006/128150 III, Tigecycline] is ____.
0.16

----------
# assay overview: Stability after storing different forms of Tigecycline at 80° C. for 7 days
# Assay type: physicochemical
# run parameters: after storing 7 days at 80° C.; listed as WO 2007/127792 II
measure: 4-Epi-Tigecycline 7 days at 80° C. (%)
// note: answer is a bare numeric in %

Give the measured 4-Epi-Tigecycline 7 days at 80° C. of CN(C)c1cc(NC(=O)CNC(C)(C)C)c(O)c2c1C[C@H]1C[C@H]3[C@H](N(C)C)C(O)=C(C(N)=O)C(=O)[C@@]3(O)C(O)=C1C2=O .
0.38

----------
# assay overview: Water solubility testing (saturated solution in distilled water, UV-vis 347 nm)
# Assay type: physicochemical
# run parameters: 30 min
# Experimental: A UV-vis Lambda 35 spectrophotometer (Perkin-Elmer) was used (A=347 nm, 1.0 cm quartz cells). Perkin Elmer® UV WinLab-5.1 software was used. A saturated solution of Tigecycline in distilled water was prepared and the suspension was stirred at room temperature for 30 minutes with a stirring speed of 1000 U/min. The suspension was filtrated through a 0.45 μm filter. Finally the resulting solution was diluted 10000-fold and measured against water at a wavelength of 347 nm.
Recorded measurements of Concentration (water solubility), one per entry
Express your answer in mg/mL, writing the number without its unit.

State the recorded Concentration (water solubility) for this entry: CN(C)c1cc(NC(=O)CNC(C)(C)C)c(O)c2c1C[C@H]1C[C@H]3[C@H](N(C)C)C(O)=C(C(N)=O)C(=O)[C@@]3(O)C(O)=C1C2=O [WO 2006/128150 III, Tigecycline]
174

Next:
What does the data say about its Concentration (water solubility)? Entry: CN(C)c1cc(NC(=O)CNC(C)(C)C)c(O)c2c1C[C@H]1C[C@H]3[C@H](N(C)C)C(O)=C(C(N)=O)C(=O)[C@@]3(O)C(O)=C1C2=O [WO 2006/128150 II, Tigecycline]
170

Query: Concentration (water solubility); subject: CN(C)c1cc(NC(=O)CNC(C)(C)C)c(O)c2c1C[C@H]1C[C@H]3[C@H](N(C)C)C(O)=C(C(N)=O)C(=O)[C@@]3(O)C(O)=C1C2=O [X, Tigecycline]
162

Requested field: Concentration (water solubility). Item: CN(C)c1cc(NC(=O)CNC(C)(C)C)c(O)c2c1C[C@H]1C[C@H]3[C@H](N(C)C)C(O)=C(C(N)=O)C(=O)[C@@]3(O)C(O)=C1C2=O [WO 2006/128150 I, Tigecycline]
201

Name the recorded Concentration (water solubility) for CN(C)c1cc(NC(=O)CNC(C)(C)C)c(O)c2c1C[C@H]1C[C@H]3[C@H](N(C)C)C(O)=C(C(N)=O)C(=O)[C@@]3(O)C(O)=C1C2=O [WO 2007/127292 I, Tigecycline] .
54

----------
# assay overview: Stability after storing different forms of Tigecycline at 80° C. for 7 days
# Assay type: physicochemical
# run parameters: ambient conditions (before storage); listed as WO 2007/127792 I
measure: 4-Epi-Tigecycline ambient conditions (%)
Reply with just the number (in %).

Any idea what 4-Epi-Tigecycline ambient conditions was measured for CN(C)c1cc(NC(=O)CNC(C)(C)C)c(O)c2c1C[C@H]1C[C@H]3[C@H](N(C)C)C(O)=C(C(N)=O)C(=O)[C@@]3(O)C(O)=C1C2=O [WO 2007/127292 I, Tigecycline] ?
0.34
